test_name: LTI-291-003 multiple dose study in GBA-PD: plasma and CSF pharmacokinetics
Assay type: in vivo, human
experimental_conditions: human, plasma, oral, 60 mg, 60 mg daily, dose 28, GBA-PD, geometric mean
readout_label: Cmax (ng/mL)
Give bare numbers, in ng/mL.

Documented Cmax of CCCCCO[C@H]1CC[C@H](NC(=O)c2cnn3c(C)cc(C)nc23)CC1 : 2790

---

test_name: LTI-291-003 multiple dose study in GBA-PD: plasma and CSF pharmacokinetics
Assay type: in vivo, human
experimental_conditions: human, plasma, oral, 30 mg, 30 mg daily, dose 1, GBA-PD, geometric mean; read-out: AUC0-last
readout_label: AUC(0-t) (µg·h/mL)
Answers are plain numbers, in µg·h/mL.

Documented AUC(0-t) of CCCCCO[C@H]1CC[C@H](NC(=O)c2cnn3c(C)cc(C)nc23)CC1 [Compound A] : 2.3

---

test_name: LTI-291-002 multiple ascending dose study: plasma and CSF pharmacokinetics
Format: in vivo, human
experimental_conditions: human, plasma, oral, 10 mg, 10 mg daily, dose 7, geometric mean; read-out: AUC0-24
readout_label: AUC(0-t) (ng·h/mL)
Numbers only, in ng·h/mL.

Documented AUC(0-t) of CCCCCO[C@H]1CC[C@H](NC(=O)c2cnn3c(C)cc(C)nc23)CC1 : 7730

---

test_name: LTI-291-002 multiple ascending dose study: plasma and CSF pharmacokinetics
Format: in vivo, human
experimental_conditions: human, plasma, oral, 10 mg, 10 mg daily, dose 14, geometric mean
readout_label: Cmax (ng/mL)
Answers are plain numbers, in ng/mL.

Documented Cmax of CCCCCO[C@H]1CC[C@H](NC(=O)c2cnn3c(C)cc(C)nc23)CC1 : 493

---

test_name: LTI-291-001 single ascending dose study: plasma pharmacokinetics and food effect
Assay type: in vivo, human
experimental_conditions: human, plasma, po, 10 mg, 10 mg fasted, single oral dose, median; read-out: Tmax
Procedure: This study was a first-in-human Phase 1, randomized, double-blind, placebo-controlled, single-ascending dose study to evaluate the safety and tolerability, PK, and PD of escalating single oral doses of Compound A (3, 10, 30, and 90 mg) in 4 cohorts of healthy subjects. […] The effect of food on the PK of Compound A was evaluated by administering a second single oral dose of 10 mg Compound A to the subjects in Cohort 2 on a separate occasion, after subjects had completed a high-fat breakfast. […]
readout_label: Tmax (h)
Give bare numbers, in h.

Documented Tmax of CCCCCO[C@H]1CC[C@H](NC(=O)c2cnn3c(C)cc(C)nc23)CC1 : 1

---

test_name: LTI-291-002 multiple ascending dose study: plasma and CSF pharmacokinetics
Assay type: in vivo, human
experimental_conditions: human, plasma, oral, 60 mg, 60 mg daily, dose 14, geometric mean
readout_label: Cmax (ng/mL)
Answers are plain numbers, in ng/mL.

Documented Cmax of CCCCCO[C@H]1CC[C@H](NC(=O)c2cnn3c(C)cc(C)nc23)CC1 : 3070

---

test_name: BIA 28-6156-107 DDI: effect of multiple-dose carbamazepine on single-dose PK of Compound A
Assay type: in vivo, human
experimental_conditions: both sexes, human, in vivo, oral; 60 mg Compound A administered alone; read-out: Median Tmax
readout_label: Tmax
The reply should read as a number followed by its unit.

Documented Tmax of CCCCCO[C@H]1CC[C@H](NC(=O)c2cnn3c(C)cc(C)nc23)CC1 [Compound A] : 1 h

---

test_name: LTI-291-001 single ascending dose study: plasma pharmacokinetics and food effect
Format: in vivo, human
experimental_conditions: human, plasma, po, 10 mg, 10 mg fed, single oral dose, geometric mean; read-out: t1/2 (converted)
readout_label: half-life
The reply should read as a number followed by its unit.

Documented half-life of CCCCCO[C@H]1CC[C@H](NC(=O)c2cnn3c(C)cc(C)nc23)CC1 [Compound A] : 23.4 h

---

test_name: LTI-291-002 multiple ascending dose study: plasma and CSF pharmacokinetics
Format: in vivo, human
experimental_conditions: human, plasma, oral, 10 mg, 10 mg daily, dose 1, geometric mean; read-out: AUC0-24
readout_label: AUC(0-t) (ng·h/mL)
Give bare numbers, in ng·h/mL.

Documented AUC(0-t) of CCCCCO[C@H]1CC[C@H](NC(=O)c2cnn3c(C)cc(C)nc23)CC1 : 3410

Every entry's value here was drawn from patent US20260240851A1.
